Provenance of the data: PubChem BioAssay AID248

System: L1210 leukemia ip in BDF1 mice, survival T/C
Test: NCI In Vivo Anticancer Drug Screen. Data for tumor model L1210 Leukemia (intraperitoneal) in B6D2F1 (BDF1) mice
Details: endpoint: mean survival time; dose: 100.0 mg/kg/injection; schedule: Q01DX001 (ip); vehicle: Klucel (hydroxypropylcellulose) (HPC); higher = longer survival
Toxic doses and inconclusive results are not listed.
MEASURED PARAMETER: T/C

Solved entries (count: 2):
CCCCNC(=O)C(=O)NCCCC ... 108 % of control
O=[N+]([O-])c1cccc(OCCCCOc2ccc(S(=O)(=O)F)cc2)c1 ... 94 % of control

Next compound, please.
Qu. Entry CCCCCCCCOc1ccc(C2=NN(c3ccccc3)C(=O)C2)cc1 , system L1210 leukemia ip in BDF1 mice, survival T/C: what T/C was measured?
Ans. 96 % of control

====

Tested on: L1210 leukemia ip in BDF1 mice, survival T/C
Assay: NCI In Vivo Anticancer Drug Screen. Data for tumor model L1210 Leukemia (intraperitoneal) in B6D2F1 (BDF1) mice
Conditions: endpoint: mean survival time; dose: 25.0 mg/kg/injection; schedule: Q04DX003 (ip); vehicle: Klucel (hydroxypropylcellulose) (HPC); higher = longer survival
Inconclusive results and toxic doses are left out.
MEASURED PARAMETER: T/C

Solved entries (count: 3):
CCN(CC)CCOc1cccc(O)c1 ... 94 % of control
C#CCC1(OC(N)=O)CCCCC1 ... 102 % of control
c1ccc(C2=C(c3ccccc3)NC(c3ccccc3)N2)cc1 ... 100 % of control

Qu. Entry O=C(Nc1cc(F)ccc1F)Oc1cccnc1 , system L1210 leukemia ip in BDF1 mice, survival T/C: what T/C was measured?
Ans. 107 % of control

====

Test system: L1210 leukemia ip in BDF1 mice, survival T/C
Experiment: NCI In Vivo Anticancer Drug Screen. Data for tumor model L1210 Leukemia (intraperitoneal) in B6D2F1 (BDF1) mice
Conditions: endpoint: mean survival time; dose: 300.0 mg/kg/injection; schedule: Q01DX001 (ip); vehicle: saline; higher = longer survival
Inconclusive results and toxic doses are left out.
MEASURED PARAMETER: T/C

I'm hoping you can list T/C for every compound here, please.
1. CCN1C(/C=C/c2ccc(O)c3ncccc23)CCC2CC(C)CCC21 (centres undefined)
2. CCN(CC)CCNc1nc2ccc(C(=O)O)cc2s1
3. CCC1=C(C)CC2c3cc(OC)c(OC)cc3CCN2C1 (centres undefined)
4. CCCCCCC1N(Cc2ccccc2N(C)C)CCCN1Cc1ccccc1N(C)C

Ans.
["120 % of control", "94 % of control", "101 % of control", "89 % of control"]

====

System: L1210 leukemia ip in BDF1 mice, survival T/C
Assay: NCI In Vivo Anticancer Drug Screen. Data for tumor model L1210 Leukemia (intraperitoneal) in B6D2F1 (BDF1) mice
Conditions: endpoint: mean survival time; dose: 100.0 mg/kg/injection; schedule: Q04DX003 (ip); vehicle: Klucel (hydroxypropylcellulose) (HPC); higher = longer survival
Toxic doses and inconclusive results are not listed.
MEASURED PARAMETER: T/C

Solved entries (count: 5):
CC12CCC(C/C1=C\C#N)C(C)(C)O2 (stereo not drawn) ... 98 % of control
O=C(Nc1ccc([N+](=O)[O-])cc1Cl)Oc1ccc(OCc2ccccc2)cc1 ... 91 % of control
CCOC(=O)CCc1cc(C)[nH]c1C(=O)OCC ... 101 % of control
CC(C)=CCC(=O)NC(=O)NS(=O)(=O)c1ccc(C)cc1 ... 100 % of control
ClC(Cl)(Cl)C1NCCO1 (stereo not drawn) ... 102 % of control

I'm hoping you can list T/C for every compound here, please.
1. COC(C)C(O)(C(N)=O)C(C)C (stereo not drawn)
2. CC(=O)c1ccc(C(C)=O)c(OCc2ccccc2)c1
3. O=C(NC1CCC(CC2CCCCC2)CC1)C(Cl)Cl (stereo not drawn)
4. Cc1cccc(NC(=O)/C=N/O)c1C

Ans.
1: 101 % of control; 2: 103 % of control; 3: 93 % of control; 4: 98 % of control

I'm hoping you can list T/C for every compound here, please.
1. O=C(c1ccncc1)n1cc2c(n1)CCCC2
2. C=CCOc1ccc(OCC=C)nn1
3. BrCc1cccc2cccc(CBr)c12
4. Nc1ccc(OC(F)(F)C(F)Cl)cc1 (stereo not drawn)

Ans.
87 % of control
104 % of control
101 % of control
97 % of control

====

Exercise: state measured T/C for each of the molecules provided.
Tested on: L1210 leukemia ip in BDF1 mice, survival T/C
Assay: NCI In Vivo Anticancer Drug Screen. Data for tumor model L1210 Leukemia (intraperitoneal) in B6D2F1 (BDF1) mice
Conditions: endpoint: mean survival time; dose: 200.0 mg/kg/injection; schedule: Q04DX003 (ip); vehicle: Klucel (hydroxypropylcellulose) (HPC); higher = longer survival
Inconclusive results and toxic doses are left out.

Solved entries (count: 6):
CN1CNC(=O)NC1 ... 105 % of control
c1ccc(C2=C(c3ccccc3)C23SCCS3)cc1 ... 100 % of control
NC(=O)c1cc(C(N)=O)c(N)nc1N ... 97 % of control
O=C1NC(=O)C2C(c3ccccc3)=NOC2N1 (stereo not drawn) ... 90 % of control
Cc1ccc(CCO)c(C)c1 ... 92 % of control
CSC1CCCC(=O)C1 (stereo not drawn) ... 97 % of control

I'm hoping you can list T/C for every molecule here, please.
1. COC(=O)/C=C/C(=O)OC
2. O=C(Nc1cccc(C(F)(F)F)c1)Oc1ccc(F)cc1

Ans.
1. 101 % of control
2. 99 % of control

====

Tested on: L1210 leukemia ip in BDF1 mice, survival T/C
Experiment: NCI In Vivo Anticancer Drug Screen. Data for tumor model L1210 Leukemia (intraperitoneal) in B6D2F1 (BDF1) mice
Conditions: endpoint: mean survival time; dose: 75.0 mg/kg/injection; schedule: Q01DX001 (ip); vehicle: other; higher = longer survival
Toxic doses and inconclusive results are not listed.
MEASURED PARAMETER: T/C

OC1CCC(c2ccccc2)C1 (stereo not given) ... 98 % of control
Cc1c2cnccc2c(C)c2c1sc1ccccc12 ... 101 % of control
CCN(CC)CCOC(=O)C(S)(c1ccccc1)c1ccccc1 ... 100 % of control
CC1(C)CCCC/C1=N\NC(N)=O ... 102 % of control

Qu. // query T/C value for entry CCCC(=O)OC1=CC(=O)c2ccccc2C1=O
Ans. 94 % of control

====

System: L1210 leukemia ip in BDF1 mice, survival T/C
Assay: NCI In Vivo Anticancer Drug Screen. Data for tumor model L1210 Leukemia (intraperitoneal) in B6D2F1 (BDF1) mice
Settings: endpoint: mean survival time; dose: 200.0 mg/kg/injection; schedule: Q04DX003 (ip); vehicle: acetone; higher = longer survival
Inconclusive results and toxic doses are left out.
Exercise: state measured T/C for each of the compounds provided.

CCOC(=O)C1(CCC#N)CC(C#N)(c2ccccc2)CCC1=O (centres undefined) ... 90 % of control
CCC1OC(C)CC(C)(C)O1 (centres undefined) ... 120 % of control
Clc1nc2cc(Cl)c(Cl)cc2[nH]1 ... 95 % of control

Next compound, please.
Qu. // query T/C value for entry COc1cc(N=Nc2ccccc2)ccc1N
Ans. 95 % of control

====

Exercise: state measured T/C for each of the compounds provided.
Tested on: L1210 leukemia ip in BDF1 mice, survival T/C
Test: NCI In Vivo Anticancer Drug Screen. Data for tumor model L1210 Leukemia (intraperitoneal) in B6D2F1 (BDF1) mice
Conditions: endpoint: mean survival time; dose: 200.0 mg/kg/injection; schedule: Q01DX009 (ip); vehicle: saline; higher = longer survival
Toxic doses and inconclusive results are not listed.

Solved entries (count: 3):
CCC(CC)(CO)CO ... 96 % of control
COc1cc(I)c(CC(=O)O)cc1OC ... 91 % of control
COC(=O)C(C)CN1CCCCCC1 (stereo not drawn) ... 104 % of control

I'm hoping you can list T/C for every compound here, please.
1. CC(C)NCC(O)c1ccc(O)c(O)c1 (stereo not drawn)
2. CC12CC3CC(Br)(C1)CC(C(=O)O)(C3)C2 (stereo not drawn)
3. O=c1n[n+]([O-])ccn1C1OC(CO)C(O)C1O (stereo not drawn)

Ans.
1: 114 % of control; 2: 91 % of control; 3: 121 % of control

====

System: L1210 leukemia ip in BDF1 mice, survival T/C
Assay: NCI In Vivo Anticancer Drug Screen. Data for tumor model L1210 Leukemia (intraperitoneal) in B6D2F1 (BDF1) mice
Conditions: endpoint: mean survival time; dose: 100.0 mg/kg/injection; schedule: Q04DX003 (ip); vehicle: Klucel (hydroxypropylcellulose) (HPC); higher = longer survival
Inconclusive results and toxic doses are left out.
MEASURED PARAMETER: T/C

CCOC(=O)c1cc(C(=O)OC)[nH]c(=O)c1C#N ... 92 % of control
O[O][Ge]([c]1ccccc1)([c]1ccccc1)[c]1ccccc1 ... 88 % of control
CCOC(=O)Nc1ccccc1 ... 93 % of control
CC1(C)CC2(CC(C)(C)c3cc(O)c(O)cc32)c2cc(O)c(O)cc21 ... 100 % of control
COc1ccc(-c2cccc(-c3ccccc3)n2)cc1 ... 96 % of control
CC(C)(c1cc(Br)c(O)c(Br)c1)c1cc(Br)c(O)c(Br)c1 ... 100 % of control

I'm hoping you can list T/C for every compound here, please.
1. O=C1CC2C3Nc4ccccc4C3CCN2C2=C1CC(OC(=O)c1ccccc1)CC2 (stereo not given)
2. COC(=O)C1CCCC23CC(CC12)C(C)(C)C3Br (stereo not given)
3. Cc1ccc(Oc2ccc(C(=O)O)cc2)cc1
4. CCN(CC)CCCC(C)Nc1cc(/C=C/c2ccc(Cl)cc2)nc(/C=C/c2ccc(Cl)cc2)n1 (stereo not given)
5. c1ccc(-c2cccc3c2N=C2C3=Nc3c2cccc3-c2ccccc2)cc1

Ans.
1: 95 % of control; 2: 97 % of control; 3: 96 % of control; 4: 96 % of control; 5: 96 % of control

I'm hoping you can list T/C for every compound here, please.
1. CC12C=CC3(CCC4C(C)(C)C(O)C(=O)CC4(C)C3CC1=O)C2 (stereo not given)
2. CC(=O)Nc1ccc(OCCCOc2ccc([N+](=O)[O-])cc2)cc1
3. CSC1CCCC(=O)C1 (stereo not given)
4. Cc1ccc(-c2ccc(C)cc2)cc1
5. CCC(CO)Nc1nc2ccccc2c2ccccc12 (stereo not given)
6. O=C(c1ccccc1)c1ccc(Cl)c(Cl)c1

Ans.
["101 % of control", "101 % of control", "96 % of control", "98 % of control", "98 % of control", "98 % of control"]
